Test system: NCI-H23 lung
test-method-notes: NCI-60 one-dose screen, 48 h (100 = growth as untreated, 0 = no growth, -100 = all killed)
protocol-conditions: 10 µM unless noted
This is part of a sample that, as a whole, favours compounds with a hit. Of some 83,000 tested, about 20% had one in any assay.
measured-quantity: growth (%)

>>> quantitative_result("COc1cc(CC#N)c([N+](=O)[O-])cc1OC")
96
>>> quantitative_result("Cc1cc(=O)n(Nc2ccccc2)c(O)c1C#N")
97.4
>>> quantitative_result("COC(=O)Cc1cc(COC(C)=O)ccc1C")
104
>>> quantitative_result("CC(=O)OC/C(C)=C\\CC(C)COC(C)=O (centres undefined)")
112
>>> quantitative_result("NNC(=O)N/N=C1\\C(=O)N(c2nccs2)C(=O)C(=O)C1c1nc2ccccc2s1 (centres undefined)")
95.6
>>> quantitative_result("NC(=S)N/N=C/c1ccc(OC(=O)COc2ccc(Cl)cc2)cn1")
33.5
>>> quantitative_result("C=CCN1CCCC1=O")
106
>>> quantitative_result("CC1(C)CC(=O)C=C(N)C1")
88.1
>>> quantitative_result("CC(C)(CC(=O)O)CC(=O)O")
100
>>> quantitative_result("Oc1ccc(CCC2CCNc3ccccc32)cc1 (centres undefined)")
65.3
>>> quantitative_result("CCOC(=O)C(C#N)=C1CCN(C)CC1")
94.3
>>> quantitative_result("N#CCCN1C(=O)CCC1C(=O)O (centres undefined)")
109
>>> quantitative_result("C=C(OC(C)=O)c1ccccc1")
97.1
>>> quantitative_result("CCCNS(=O)(=O)c1ccc(Cl)cc1")
104
